Listed here: items and their measured Ki.
# tested.target: Tyrosine-protein phosphatase non-receptor type 1 [1-298] (Homo sapiens)
# Construct: 1-298
# Sequence (P18031 1-298): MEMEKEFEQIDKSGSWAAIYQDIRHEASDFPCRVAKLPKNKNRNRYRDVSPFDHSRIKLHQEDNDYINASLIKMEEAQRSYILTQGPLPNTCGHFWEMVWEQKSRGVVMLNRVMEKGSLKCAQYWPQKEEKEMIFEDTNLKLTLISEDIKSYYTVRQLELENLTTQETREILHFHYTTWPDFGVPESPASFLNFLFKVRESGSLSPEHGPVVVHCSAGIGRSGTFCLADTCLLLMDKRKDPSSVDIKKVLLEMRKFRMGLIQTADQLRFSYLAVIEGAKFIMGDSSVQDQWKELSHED
# assay.text: Enzymatic Assay
# condition.notes: 25 °C
measurement.type: Ki (µM)

sample.smiles	unit.of.measure	result
O=C(O)COc1c(C(=O)O)sc2c1sc1cc(NCC3CCCCC3)ccc12	µM	0.68
O=C(O)COc1c(C(=O)O)sc2c1sc1c(Cl)cccc12	µM	10
O=C(O)COc1c(C(=O)O)sc2c1sc1c(NCC3CCCCC3)cccc12	µM	0.92
O=C(O)COc1c(C(=O)O)sc2c1ccc1ccccc12	µM	11
O=C(O)COc1c(C(=O)O)sc2c1sc1cc(NC3CCOCC3)ccc12	µM	2.4
O=C(O)COc1c(C(=O)O)sc2c1sc1ccccc12	µM	9.2
O=C(O)COc1c(C(=O)O)sc2c(Cl)cccc12	µM	119
